tested on: L1210 leukemia ip in BDF1 mice, survival T/C; assay: NCI In Vivo Anticancer Drug Screen. Data for tumor model L1210 Leukemia (intraperitoneal) in B6D2F1 (BDF1) mice; conditions: endpoint: mean survival time; dose: 80.0 mg/kg/injection; schedule: Q01DX001 (ip); vehicle: saline; higher = longer survival
Inconclusive results and toxic doses are left out.
Reported T/C values for a set of compounds

These recorded examples may help you get a feel for the data.
[
  {
    "compound": "O=C(Nc1cccc(Cl)c1)OCC#CCN1CCCC1",
    "T/C": "111 % of control"
  },
  {
    "compound": "C[C@]12CC[C@H]3[C@@H](CC[C@]4(O)C[C@@H](O)CC[C@]34C=O)[C@@]1(O)CC[C@@H]2c1ccc(=O)oc1",
    "T/C": "95 % of control"
  },
  {
    "compound": "C1CC2CC1C1CNCC21 (configuration not stated)",
    "T/C": "91 % of control"
  },
  {
    "compound": "CCCCCCC(C)NCCO (configuration not stated)",
    "T/C": "100 % of control"
  },
  {
    "compound": "N=C(N)S/C=C/CSC(=N)N",
    "T/C": "97 % of control"
  },
  {
    "compound": "O=C(Nc1ccc(C2=NCCN2)cc1)c1ccc(C(=O)Nc2ccc(C3=NCCN3)cc2)c(Cl)c1",
    "T/C": "119 % of control"
  }
]

Consider now this further compound.
Reported T/C for NS(=O)(=O)c1ccc(-c2ccc([As](=O)(O)O)cc2)cc1 was 98 % of control
